# key: entry, value: viability at 24 h, 100 μg/mL
assay: In vitro cytotoxicity, MTT assay; format: cell-based; conditions: human, HepG2 cells; HepG2, 100 μg/mL, 24 h, control = 100; read-out: Cell Viability
Express it in %; write the number only.

Would you please look over these solved cases?
INSERT INTO results (smiles_input, recorded_number) VALUES
  ('Cc1ccc2nc(N3CCCCC3)c(C=NNC(=S)Nc3ccc(F)cc3)cc2c1', 98.1),
  ('Cc1cccc2cc(C=NNC(=S)Nc3ccccc3)c(N3CCCCC3)nc12', 95.7),
  ('Cc1ccc2nc(N3CCCCC3)c(C=NNC(=S)NCc3ccccc3)cc2c1', 101),
  ('Cc1cccc2cc(C=NNC(=S)NCc3ccccc3)c(N3CCCCC3)nc12', 105),
  ('Cc1cccc2cc(C=NNC(=S)Nc3ccc(Cl)cc3)c(N3CCCCC3)nc12', 106);

viability at 24 h, 100 μg/mL recorded for this compound, Cc1cccc2cc(C=NNC(=S)Nc3ccccc3Cl)c(N3CCCCC3)nc12 , is 112

viability at 24 h, 100 μg/mL recorded for this compound, Cc1ccc2nc(N3CCCCC3)c(C=NNC(N)=S)cc2c1 , is 88.9

viability at 24 h, 100 μg/mL recorded for this compound, Cc1ccc2nc(N3CCCCC3)c(C=NNC(=S)Nc3cccc(F)c3)cc2c1 , is 99.4

viability at 24 h, 100 μg/mL recorded for this compound, CCc1ccc(NC(=S)NN=Cc2cc3cc(C)ccc3nc2N2CCCCC2)cc1 , is 110
